molecular target: Saccharomyces cerevisiae Icmt (Saccharomyces cerevisiae, UniProt P32584); construct: A 734 bp EagI-SacII fragment, which contained the gene STE14, was amplified from pSM187; made in house; host or cells: Saccharomyces cerevisiae strain CH2704 (plasmid pCHH10m3N-STE14 in the Ste14p-lacking strain SM1188); membrane fraction; test: In vitro vapor diffusion methyltransferase assay, AFC analogues as substrates; format: biochemical; details: Relative velocity (compared to AFC) at 125 μM; substrate ability
Sequence (P32584 whole entry, the tested form may be a part): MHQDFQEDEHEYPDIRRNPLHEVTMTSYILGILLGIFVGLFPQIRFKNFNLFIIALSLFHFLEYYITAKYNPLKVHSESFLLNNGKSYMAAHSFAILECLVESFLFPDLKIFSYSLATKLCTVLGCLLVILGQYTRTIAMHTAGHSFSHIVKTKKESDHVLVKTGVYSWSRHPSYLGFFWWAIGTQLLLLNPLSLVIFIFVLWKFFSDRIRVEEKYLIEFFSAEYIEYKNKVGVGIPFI
Recorded endpoint: Icmt krel

Sample answers from the record:
Molecule	Tested on	Icmt krel
CC(=O)N[C@@H](CSC/C=C(\CC=C(C)C)CC/C=C(\C)CCC=C(C)C)C(=O)O	Saccharomyces cerevisiae Icmt (Saccharomyces cerevisiae, UniProt P32584)	5.9
CC(=O)N[C@@H](CSC/C=C(/C)CC/C=C(\C)CCC=C(C)C)C(=O)O	Saccharomyces cerevisiae Icmt (Saccharomyces cerevisiae, UniProt P32584)	62.0
CCCCCCCCCC/C(C)=C/CSC[C@H](NC(C)=O)C(=O)O	Saccharomyces cerevisiae Icmt (Saccharomyces cerevisiae, UniProt P32584)	24.2
CC(=O)N[C@@H](CSCC=C(C)CCC=C(C)CCC=C(C)C)C(=O)O [Compound 1, N-acetyl-S-farneslylcysteine, reference compound]	Saccharomyces cerevisiae Icmt (Saccharomyces cerevisiae, UniProt P32584)	100
CC(=O)N[C@@H](CSC/C=C(\C)CC/C=C(\CC=C(C)C)CCC=C(C)C)C(=O)O	Saccharomyces cerevisiae Icmt (Saccharomyces cerevisiae, UniProt P32584)	35.0

I: CC(=O)N[C@@H](CSC/C=C(\CC=C(C)C)CCc1ccc(-c2ccccc2)cc1)C(=O)O
II: CC(=O)N[C@@H](CSC/C=C(\C)CC/C=C(/C)CCC=C(C)C)C(=O)O
Among I and II , which shows a numerically higher Icmt krel result? State the label of the item chosen.
II
(II: 19.1, I: 0.70)

I: CC(=O)N[C@@H](CSC/C=C(\CC=C(C)C)CC/C=C(\C)CC/C=C(\C)CCC=C(C)C)C(=O)O
II: C=CCC(=CCSC[C@H](NC(C)=O)C(=O)O)CCC=C(C)CCC=C(C)C
Among I and II , which shows a numerically higher Icmt krel result? State the label of the item chosen.
I

a: CC(=O)N[C@@H](CSC/C=C(\C)CC/C=C(\CC=C(C)C)CC/C=C(\C)CCC=C(C)C)C(=O)O
b: C=CCC/C(=C\CSC[C@H](NC(C)=O)C(=O)O)CC/C=C(\C)CCC=C(C)C
Which entry shows the lesser value of Icmt krel here, a or b ? State the label of the item chosen.
a

----------
molecular target: Saccharomyces cerevisiae Icmt (Saccharomyces cerevisiae, UniProt P32584); construct: A 734 bp EagI-SacII fragment, which contained the gene STE14, was amplified from pSM187; membrane fraction; experiment: In vitro vapor diffusion methyltransferase assay, inhibition of AFC methylation; details: AFC(protein)-competitive inhibition of Icmt
Recorded endpoint: Ki (µM)
State just the number; it will be interpreted in µM.

The reported Ki of the compound CC(=O)N[C@@H](CSC/C=C(\CC=C(C)C)CC/C=C(\C)CCC=C(C)C)C(=O)O was 21.3

# credit: patent US20070004803A1
